- subject.of.test: T1, recombinant biotinylated CD71 extracellular domain (Sino Biologics) with an N-terminal 6His tag (human, UniProt P02786 89-760, biotinylated (sites not given))
- T1 construct: extracellular domain; also called hCD71; huCD71
- protocol.description: screening ELISA
Items are presented alongside their recorded hCD71.
Could you keep your reply to the number by itself?

// known answers, use as guide
SEQ ID NO 147 (designed binder, FN3 domain) MLPAPKNLVVSRVTEDSARLSWTAPDAAFDSFFIGYLEPQPPGEAIVLTVPGSERSYDLTGLKPGTEYSVLIHGVKGGRNSDPLSAISTT : 2.36e+06
SEQ ID NO 157 (designed binder, FN3 domain) MLPAPKNLVVSRVTEDSARLSWTAPDAAFDSFAIEYYEYVGNGEAIVLTVPGSERSYDLTGLKPGTEYQVGIYGVKGGYYSRPLSAIFTT : 2.66e+06
SEQ ID NO 274 (designed binder, FN3 domain) MLPAPKNLVVSRVTEDSVRLSWTAPDAAFDSFAISYEEWWVHGEAIVLTVPGSERSYDLTGLKPGTEYSVVIPGVKGGLYSWTLSAISTT : 522000
SEQ ID NO 279 (designed binder, FN3 domain) MLPAPKNLVVSRVTEDSARLSWTAPDAAFDSFSIEYYESVGLGEAIVLTVPGSERSYDLTGLKPGTEYDVSIYGVKGGYLSRPLSAIFTT : 4.09e+06
SEQ ID NO 113 (designed binder, FN3 domain) MLPAPKNLVVSRVTEDSARLSWTAPDAAFDSFDIHYKEHSWWGEAIVLTVPGSERSYDLTGLKPGTEYIVPIPGVKGGGISRPLSAIFTT : 2.14e+06
SEQ ID NO 139 (designed binder, FN3 domain) MLPAPKNLVVSRVTEDSARLSWTAPDAAFDSFDISYWESGKYGEAIVLTVPGSESSYDLTGLKPGTEYLVDIFGVKGGYPSEPLSAIFTT : 3.03e+06

Entry SEQ ID NO 254 (designed binder, FN3 domain) MLPAPKNLVVSRVTEDSARLSWTAPDAAFDSFFIPYAEPSPTGEAIVLTVPGSERSYDLTGLKPGTEYSVLIHGVKGGHLSDPLSAISTT , hCD71 reported as 3.24e+06

Lab note: measured hCD71 of SEQ ID NO 178 (designed binder, FN3 domain) MLPAPKNLVVSRVTEDSARLSWTAPDAAFDSFDIAYAEPIPRGEAIVLTVPGSERSYDLTGLKPGTEYSVLIHGVKGGRRSVPLSAIFTT was 1.45e+06

Form: binder = SEQ ID NO 260 (designed binder, FN3 domain) MLPAPKNLVVSRVTEDSARLSWTAPDAAFDSFNISYYEYFVHGEAIVLTVPGSERSYDLTGLKPGTEYYVIDGVKGGDPSEPLSAIFTT ; hCD71 = 1.3e+06

Record SEQ ID NO 161 (designed binder, FN3 domain) MLPAPKNLVVSRVTEDSARLSWTAPDAAFDSFTIRYWEELPTGEAIVLTVPGSERSYDLTGLKPGTEYTVEIFGVKGGYLSRPLSAISTT , field hCD71: 1.21e+06

Per the records, this binder ( SEQ ID NO 189 (designed binder, FN3 domain) MLPAPKNLVVSRVTEDSARLSWTAPDAAFDSFHEWVYFGEAIVLTVPGSERSYDLTGLKPGTEYFVDIWGVKGGTVSKPLSAIFTT ) has hCD71 equal to 1.96e+06

hCD71 in this record for SEQ ID NO 159 (designed binder, FN3 domain) MLPAPKNLVVSRVTEDSARLSWTAPDAAFDSFLIPYAETSPSGEAIVLTVPGSERSYDLTGLKPGTEYSVLIHGVKGGRNSDPLSAIFTT : 2.58e+06

The recorded hCD71 for SEQ ID NO 102 (designed binder, FN3 domain) MLPAPKNLVVSRVTEDSARLSWTAPDAAFDSFSIDYDEPQPVGEAIVLTVPGSERSYDLTGLKPGTEYRVDIWGVKGGPTSGPLRATFTT is 3.48e+06

Record summary for SEQ ID NO 262 (designed binder, FN3 domain) MLPAPKNLVVSRVTEDSARLSWTAPDAAFDSFAIEYFEYTGEGEAIVLTVPGSERSYDLTGLKPGTEYYVGIYGVKGGYLSRPLSAIFTT : reported hCD71 = 4.38e+06

The reported value for SEQ ID NO 148 (designed binder, FN3 domain) MLPAPKNLVVSRVTEDSARLSWTAPDAAFDSFHIEYEEQYSTGEAIYLRVPGSERSYDLTGLKPGTEYHVDIEGVKGGRRSFPLNAFFTT in terms of hCD71 is 3.98e+06

Please fill in: hCD71 reported for SEQ ID NO 91 (designed binder, FN3 domain) MLPAPKNLVVSRVTEDSARLSWTAPDAAFDSFVIEYWERTQPGEAIVLTVPGSERSYDLTGLKPGTEYDVWISGVKGGKWSEPLSAIFTT = 1.44e+06

Reported hCD71 ( SEQ ID NO 192 (designed binder, FN3 domain) MLPAPKNLVVSRVTEDSARLSWTALDAAFDSFFIGYLEPQPPGEAIVLTVPGSERSYDLTGLKPGTEYNVTIQGVKGGFPSMPLSAIFTT ) = 2.67e+06

Short answer for SEQ ID NO 117 (designed binder, FN3 domain) MLPAPKNLVVSRVTEDSARLSWTAPDAAFDSFTIPYGEAFNPGEAIVLTVPGSERSYDLTGLKPGTEYDVFIEGVKGGTLSWPLSAIFTT : hCD71 was 1.5e+06
